ASSAY_EXPLANATION: coupled detection enzyme interference, dose response, artefact control for MgcRacGAP inhibitor project, biochemical, coupled enzyme counter-screen (AID 624351);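 further: signal is the ADP detection kit reading of free GDP without any GAP enzyme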
CONDITION_DETAILS: ADP Hunter coupled enzyme counter-screen, fluorescence, no MgcRacGAP; series mostly up to 80 µM
The whole screen tested about 2,400 compounds, of which about 1,400 (58%) were called active.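 How the source made its calls: active means inhibition of 30% or more at any tested dose; inconclusive means primary hits over the limit that were never retested; inactive means the rest.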 The set was probably picked from earlier hits. This is one part of the list.
Classes to choose from: t (active), f (inactive)

COMPOUND: COc1ccc(NCc2cc3cc(OC)ccc3[nH]c2=O)cc1
CLASS_ASSIGNMENT: f

Status in this test for S=c1[nH]nc(Nc2ccccc2Cl)s1 ?
t

Recorded test outcome, item COc1ccc(CN2CCN(Cc3ccc4ccccc4c3)CC2)cc1OC
f

Per the records of this test, what outcome belongs to Cc1ccc(N2CC(C(=O)Nc3ccc(N(C)C)cc3)CC2=O)cc1C (stereo not drawn) ?
t

What did the test return for COc1ccc(N2CCC(CNC(=O)Nc3ccc(C)c(C)c3)C2)cc1 (stereo not drawn) ?
f

Lab log entry: COc1cc(/C=C2/C(=O)NN(c3ccc(Cl)cc3)C2=O)cc(Br)c1O — outcome as called in the assay?
f

Called result for Oc1ccc(-c2csc(Nc3ccccn3)n2)cc1
t

----------
ASSAY_EXPLANATION: coupled detection enzyme interference, dose response, artefact control for MgcRacGAP inhibitor project, biochemical, coupled enzyme counter-screen (AID 624351);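 further: signal is the ADP detection kit reading of free GDP without any GAP enzyme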
CONDITION_DETAILS: ADP Hunter coupled enzyme counter-screen, fluorescence, no MgcRacGAP; series mostly up to 80 µM
Out of some 2,400 compounds screened, about 1,400 (58%) were called active.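 The calls were made as follows: active = inhibition of 30% or more at any tested dose; inconclusive = primary hits over the limit that were never retested; inactive = the rest.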 The set was probably picked from earlier hits. This is one part of the list.
Hi there, use one of these labels in your reply, thanks! active, inactive

Please review the entries below; each comes with its answer.
COMPOUND: O=[N+]([O-])c1ccc(N2CCN(c3ccc(O)cc3)CC2)c(Cl)c1
CLASS_ASSIGNMENT: active
--
COMPOUND: C/C(CC(=O)Nc1ccc(N(C)C)cc1)=N\NC(=O)c1ccc(F)cc1
CLASS_ASSIGNMENT: active
--
COMPOUND: COc1ccc(OC(=O)c2cc(S(=O)(=O)N3CCCC3)ccc2Cl)cc1
CLASS_ASSIGNMENT: inactive
--
COMPOUND: Cc1ccc(/C=N/Nc2ccc(Cl)c(C(=O)O)c2)s1
CLASS_ASSIGNMENT: active
--
COMPOUND: CC(C)(C)N(Cc1ccc2c(c1)OCO2)C(=O)/C=C\S(=O)c1ccccc1 (stereo not drawn)
CLASS_ASSIGNMENT: inactive

What call does the record list for O=C(Cn1sc2ccccc2c1=O)Nc1ccc(F)cc1 ?
inactive

So what was the verdict on O=C(CN1CCN(Cc2ccccc2)CC1)NC(c1ccccc1)c1ccccc1 in this test?
inactive

I would be grateful if you could indicate the recorded call for O=[N+]([O-])c1ccc(N2CCN(CCOCCO)CC2)c([N+](=O)[O-])c1 .
inactive

What did this assay record as the result for COc1ccc(N=Nc2cc(OC)c(N)cc2OC)cc1 ?
active

# lookup: test call for COc1cc(OC)c(OC)cc1/C=N/N(C)c1ccccc1
active

----------
ASSAY_EXPLANATION: coupled detection enzyme interference, dose response, artefact control for MgcRacGAP inhibitor project, biochemical, coupled enzyme counter-screen (AID 624351);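 further: signal is the ADP detection kit reading of free GDP without any GAP enzyme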
CONDITION_DETAILS: ADP Hunter coupled enzyme counter-screen, fluorescence, no MgcRacGAP; series mostly up to 80 µM
The whole screen tested about 2,400 compounds, of which about 1,400 (58%) were called active.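 Rule for the calls: active = inhibition of 30% or more at any tested dose; inconclusive = primary hits over the limit that were never retested; inactive = the rest.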 So high a share suggests a set chosen from earlier hits. Some of the results follow.
Outcomes you can answer with include only these: TRUE = active, FALSE = inactive

Dear all, I need the recorded test outcome for CN(C)c1ccc(O)c2c1CC1CC3[C@@H](N(C)C)C(=O)C(C(N)=O)=C(O)[C@]3(O)C(=O)C1=C2O (stereo partly specified) , thank you.
FALSE

Check the results log: what was the call for CCCS(=O)(=O)N1CCN(C2CCC(C)CC2)CC1 (stereo unspecified) ?
FALSE

Hi, do you know how CC1(C)CC(=O)C2=C(C1)Nc1ccccc1S2 came out in this test?
TRUE

Short answer needed: outcome of this test for CCN(CCNCC(O)COc1ccccc1C(C)C)c1cccc(C)c1 (stereo unspecified) ?
FALSE

----------
ASSAY_EXPLANATION: coupled detection enzyme interference, dose response, artefact control for MgcRacGAP inhibitor project, biochemical, coupled enzyme counter-screen (AID 624351);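 further: signal is the ADP detection kit reading of free GDP without any GAP enzyme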
CONDITION_DETAILS: ADP Hunter coupled enzyme counter-screen, fluorescence, no MgcRacGAP; series mostly up to 80 µM
Out of some 2,400 compounds screened, about 1,400 (58%) were called active.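 How the source made its calls: active means inhibition of 30% or more at any tested dose; inconclusive means primary hits over the limit that were never retested; inactive means the rest.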 The set was probably picked from earlier hits. The list shows a part of the results.
One label from this list, please: true for active, false for inactive

Completed entries (count: 3):
MOLECULE: O=C(CCn1cnc2ccccc21)N/N=C/c1ccc(O)cc1
CLASS_ASSIGNMENT: true
//
MOLECULE: CN(C)CCCn1c(SCc2ccc(Cl)cc2)nnc1-c1ccncc1
CLASS_ASSIGNMENT: false
//
MOLECULE: CN(C)c1ccc(C=Cc2cnccn2)cc1
CLASS_ASSIGNMENT: true

What did the test return for C#CCOCCOCCOCCNc1nc(N2CCN(C(=O)[C@H](CCCCN)n3cc(CN)nn3)CC2)nc(N2CCN(C(=O)[C@H](CCC(=O)O)n3cc([C@@H](N)CCCCN)nn3)CC2)n1 ?
false

I would be grateful if you could indicate the recorded call for COc1ccc(Nc2ccccc2)c(C)c1 .
true

----------
ASSAY_EXPLANATION: coupled detection enzyme interference, dose response, artefact control for MgcRacGAP inhibitor project, biochemical, coupled enzyme counter-screen (AID 624351);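 further: signal is the ADP detection kit reading of free GDP without any GAP enzyme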
CONDITION_DETAILS: ADP Hunter coupled enzyme counter-screen, fluorescence, no MgcRacGAP; series mostly up to 80 µM
In all, about 2,400 compounds went through this assay and about 1,400 (58%) were called active.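 Rule for the calls: active = inhibition of 30% or more at any tested dose; inconclusive = primary hits over the limit that were never retested; inactive = the rest.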 The set was probably picked from earlier hits. The list shows a part of the results.
Choose the fitting class; nothing outside 1 (yes) for active, 0 (no) for inactive is accepted.

MOLECULE: COc1ccc2c(c1)Sc1ccccc1N2
CLASS_ASSIGNMENT: 1 (yes)

Shifting focus to the molecule that follows.
Status in this test for O=C(O)C1CCN(Cc2cnn(-c3ccccc3)c2-n2cccc2)CC1 ?
0 (no)

----------
ASSAY_EXPLANATION: coupled detection enzyme interference, dose response, artefact control for MgcRacGAP inhibitor project, biochemical, coupled enzyme counter-screen (AID 624351);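 further: signal is the ADP detection kit reading of free GDP without any GAP enzyme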
CONDITION_DETAILS: ADP Hunter coupled enzyme counter-screen, fluorescence, no MgcRacGAP; series mostly up to 80 µM
The campaign covered roughly 2,400 compounds. About 1,400 (58%) were called active.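 The calls were made as follows: active = inhibition of 30% or more at any tested dose; inconclusive = primary hits over the limit that were never retested; inactive = the rest.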 So high a share suggests a set chosen from earlier hits. Some of the results follow.
Respond only with the outcome that fits, drawn from True = active, False = inactive

Before answering, review these 5 worked examples.
STRUCTURE_AS_SMILES: COCc1cc(C)nc(OCC(=O)N/N=C/c2ccc(O)cc2)c1C#N
CLASS_ASSIGNMENT: True

STRUCTURE_AS_SMILES: O=C(COc1ccccc1[N+](=O)[O-])N/N=C/c1ccc(O)cc1
CLASS_ASSIGNMENT: True

STRUCTURE_AS_SMILES: O=C(Cc1ccc(Cl)cc1)N/N=C/c1ccc(O)c(O)c1
CLASS_ASSIGNMENT: True

STRUCTURE_AS_SMILES: O=C1/C(=C\c2ccc(O)c(O)c2)N=C2CCCCCN12
CLASS_ASSIGNMENT: True

STRUCTURE_AS_SMILES: CCOc1cc(/C=C2\N=C3CCCCCN3C2=O)ccc1O
CLASS_ASSIGNMENT: True

What did this assay record as the result for O=[N+]([O-])c1ccccc1OCCNCc1ccccc1 ?
False

----------
ASSAY_EXPLANATION: coupled detection enzyme interference, dose response, artefact control for MgcRacGAP inhibitor project, biochemical, coupled enzyme counter-screen (AID 624351);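 further: signal is the ADP detection kit reading of free GDP without any GAP enzyme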
CONDITION_DETAILS: ADP Hunter coupled enzyme counter-screen, fluorescence, no MgcRacGAP; series mostly up to 80 µM
Screen size: about 2,400 compounds; about 1,400 (58%) were called active.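 The calls were made as follows: active = inhibition of 30% or more at any tested dose; inconclusive = primary hits over the limit that were never retested; inactive = the rest.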 The set was probably picked from earlier hits. This is one part of the list.
Select the correct class. Options are 1 for active, -1 for inactive and nothing else.

COMPOUND: COc1cc(/C=N/NC(=O)c2c(-c3ccccc3)noc2C)ccc1O
CLASS_ASSIGNMENT: 1
//
COMPOUND: CC1CN(CCCCN2C(=O)c3ccccc3C2=O)CC(C)O1 (stereo unspecified)
CLASS_ASSIGNMENT: -1
//
COMPOUND: Cc1ccc2oc(=O)c(/C=C(\O)c3ccccc3)nc2c1
CLASS_ASSIGNMENT: 1

For Cc1sc2nc(CN3CCOCC3)nc(N3CCOCC3)c2c1C , which call appears in the assay record?
-1

Could you kindly confirm the outcome this assay logged for COc1ccccc1CNCC(=O)Nc1ccc(N(C)C)cc1 ?
1

Record lookup: outcome of this test for CCN(CC)c1ccc(NC(=O)COC(=O)Cc2ccsc2)cc1 ?
1
